The values you see were collected from PubChem BioAssay.

Assay: inhibition of PAO1 biofilm formation – strain PAO1, LB-PBS medium, absorbance 600 nm, primary screen (AID 1176); also: test concentration not given here
Settings: P. aeruginosa PAO1 growth/biofilm, A600, 12 h; higher = more signal
Class criterion met: z-score at least -0.1. Class criterion not met: z-score below -0.1.

Example results:
compound	class
C=CC[C@@H](OC(=O)Nc1ccc(SC)cc1)c1ccc(O)c(F)c1	criterion met
CC1CC/C=C\[C@H]2OC34C=CCN(c5ccc6ccccc6c5)C(=O)[C@H]3N(CCCO)C(=O)[C@@H]4C2C(=O)O1 (stereo partly specified)	criterion not met
C=CCC(OC(C)=O)[C@@H]1[C@@H](N(Cc2cccc3ccccc23)C(=O)Cc2ccc(OC)cc2)c2cc(OCCCO)ccc2N1C(=O)c1ccc(-c2ccccc2)cc1 (stereo partly specified)	criterion not met
CC[C@@H]1O[Si](C(C)C)(C(C)C)c2c1cc(-c1cc(C)c(OC)c(C)c1)nc2-c1ccc(Oc2ccccc2)cc1	criterion not met
CCC1=C2CN(Cc3ccccc3)[C@@H](C(=O)Cc3ccccc3)C2C=CCC1 (stereo partly specified)	criterion not met
CC(C)c1ccc(NN2C(C(O)c3ccc(C#N)cc3)C=CC3C(=O)N(c4ccccc4)C(=O)C32)cc1 (stereo unspecified)	criterion met

-- ask Hi team, for COC(=O)[C@@H]1N=C(c2ccc(OCCCO)cc2)O[C@@H]1C , is the recorded z-score at or above -0.1?
-- reply criterion not met

-- ask Similarly, COC(=O)c1c(CC[C@@H](CO)NC(=O)N[C@@H](C)Cn2cc(-c3ccccn3)nn2)oc(C(C)=O)c1C(=O)OC ?
-- reply criterion not met
